The measured values listed here are drawn from ChEMBL document CHEMBL1149107.

Molecular target: Nitric oxide synthase 3 (Homo sapiens)
Sequence (P29474 whole entry): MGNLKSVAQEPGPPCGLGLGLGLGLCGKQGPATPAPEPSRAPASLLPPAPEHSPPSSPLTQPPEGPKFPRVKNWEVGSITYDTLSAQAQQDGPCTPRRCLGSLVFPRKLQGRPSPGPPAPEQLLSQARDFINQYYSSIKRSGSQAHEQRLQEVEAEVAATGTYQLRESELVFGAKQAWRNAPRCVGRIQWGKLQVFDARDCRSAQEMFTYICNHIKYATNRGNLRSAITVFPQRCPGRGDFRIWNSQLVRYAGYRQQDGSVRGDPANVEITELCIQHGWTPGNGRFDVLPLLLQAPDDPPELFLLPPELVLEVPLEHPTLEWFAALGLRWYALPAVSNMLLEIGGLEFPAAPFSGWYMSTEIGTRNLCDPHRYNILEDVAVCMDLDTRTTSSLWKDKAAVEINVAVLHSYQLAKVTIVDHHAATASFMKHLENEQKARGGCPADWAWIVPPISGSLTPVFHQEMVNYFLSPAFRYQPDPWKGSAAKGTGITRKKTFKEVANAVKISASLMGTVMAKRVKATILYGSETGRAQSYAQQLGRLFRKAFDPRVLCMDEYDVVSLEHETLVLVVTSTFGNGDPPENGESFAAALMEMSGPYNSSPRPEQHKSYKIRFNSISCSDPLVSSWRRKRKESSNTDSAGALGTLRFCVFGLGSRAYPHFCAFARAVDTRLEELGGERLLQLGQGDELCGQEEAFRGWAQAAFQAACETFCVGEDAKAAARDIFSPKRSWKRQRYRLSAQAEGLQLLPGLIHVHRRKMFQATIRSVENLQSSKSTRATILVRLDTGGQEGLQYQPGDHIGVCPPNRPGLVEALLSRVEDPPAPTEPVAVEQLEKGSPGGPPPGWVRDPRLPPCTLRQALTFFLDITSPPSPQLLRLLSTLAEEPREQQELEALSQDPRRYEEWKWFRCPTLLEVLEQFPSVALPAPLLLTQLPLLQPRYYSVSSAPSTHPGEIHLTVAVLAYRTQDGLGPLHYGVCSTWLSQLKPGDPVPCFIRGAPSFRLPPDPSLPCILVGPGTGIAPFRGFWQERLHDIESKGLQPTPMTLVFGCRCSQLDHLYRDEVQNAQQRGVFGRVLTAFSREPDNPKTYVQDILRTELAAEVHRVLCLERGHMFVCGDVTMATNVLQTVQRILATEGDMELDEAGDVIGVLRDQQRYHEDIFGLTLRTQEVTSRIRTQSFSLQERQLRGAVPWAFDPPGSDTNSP
Item-by-item account of IC50
Please state the figure in µM; there is no need to write the unit.

1. CN(C)C1CCCCC1Oc1ccc(-c2cccc(N)n2)c2ccccc12 (stereo unspecified) = 13
2. CN1CCC(Oc2ccc(-c3cccc(N)n3)c3ccccc23)C1 (stereo unspecified) = 13
3. CN1CCN(CCOc2ccc(-c3cccc(N)n3)c3c2CCC3)CC1 = 3.03
4. CN(C)CCOc1ccc(-c2cccc(N)n2)c2c1CCCC2 = 3.53
5. Nc1cccc(-c2ccc(OCCN3CCCC3)c3c2CCCC3)n1 = 2.21

What does the record list as IC50 for CN(C)CCOc1ccc(-c2cccc(N)n2)c2c1CCCCC2 ?
5.75

Can you look up the measured IC50 of CN(C)CCOc1ccc(-c2cccc(N)n2)c2c1CCC2 for me?
1.57

What value of IC50 has been reported for the following molecule? CN1CCN(CCOc2ccc(-c3cccc(N)n3)c3c2CCCC3)CC1
10.6

Can you share its IC50? I mean this molecule: CN1CCCC1COc1ccc(-c2cccc(N)n2)c2ccccc12 (stereo unspecified)
2.93

IC50 for CN1CCN(CCOc2ccc(-c3cccc(N)n3)c3ccccc23)CC1 ?
12

Could you tell me which IC50 is on file for Nc1cccc(-c2ccc(OCC3CC4CCN3CC4)c3ccccc23)n1 (stereo unspecified) ?
3.77

So what does the record say about IC50 for CN(C)CCOc1ccc(-c2cccc(N)n2)c2c1C1CCC2C1 (stereo unspecified) ?
19

Using the record for Nc1cccc(-c2ccc(OCCN3CCCC3)c3ccccc23)n1 , report its IC50.
3.71

What value of IC50 has been reported for the following molecule? CN(C)CCOc1ccc(-c2cccc(N)n2)c2ccccc12
5.79

Please report the recorded IC50 for Nc1cccc(-c2ccc(OCCN3CCCC3)c3c2CCC3)n1 .
0.785

Any idea what its IC50 is? The molecule is CN(C)C1CCN(CCOc2ccc(-c3cccc(N)n3)c3ccccc23)CC1
7.02
